// data source = PubChem BioAssay AID2097

The entries below come with measured activity score (negative = inhibition) values attached.
- TESTED_SYSTEM: Glycogen synthase kinase-3 beta (Homo sapiens)
- TEST_NAME: blockers of GSK3B enzyme activity – biochemical, cell-free homogeneous, HTS, primary screen (AID 2097);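 also: 0% = median DMSO wells and -100% = median GW8510 positive control wells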
- PARTICULARS: GST-GSK3beta kinase, ADP-Glo luminescence, 60 min; at 10 µM; hits give low values
In all, about 300,000 compounds went through this assay and about 120 (0.04%) were called active. The list comes from a sample in which actives are over-represented; it also holds close analogues and randomly drawn compounds.
RECORDED_ENDPOINT: activity score (negative = inhibition) (%)

{"MOLECULE": "Cc1ccc(C2=NN(C)c3nc4ccccc4n3C2)cc1", "QUANTITATIVE_READOUT": 1.54}
{"MOLECULE": "COc1ccc(CCc2nc(-c3cccs3)no2)cc1", "QUANTITATIVE_READOUT": 2.12}
{"MOLECULE": "COC(C[C@H](O)CC(=O)[C@@H](C)OCc1ccccc1)OC", "QUANTITATIVE_READOUT": -8.84}
{"MOLECULE": "O=[N+]([O-])c1ccccc1S(=O)(=O)Nc1cccc2cccnc12", "QUANTITATIVE_READOUT": 0.31}
{"MOLECULE": "CC(=O)N1CC[n+]2c(-c3ccc([N+](=O)[O-])cc3)csc21", "QUANTITATIVE_READOUT": -0.11}
{"MOLECULE": "C/C(CC(=O)NCc1ccc(Cl)cc1)=N\\NC(=O)COc1ccc(C)cc1Br", "QUANTITATIVE_READOUT": -2.78}
{"MOLECULE": "CC(=O)Nc1ccc(C(=O)Nc2cccc(S(=O)(=O)NC3=NCCC3)c2)cc1", "QUANTITATIVE_READOUT": 1.23}
{"MOLECULE": "COC(=O)c1c(C(=O)OC)c(-c2cccc(C)c2)n2c1CS(=O)C2 (centres undefined)", "QUANTITATIVE_READOUT": -0.0395}
{"MOLECULE": "Cc1ccc(C(=O)NC2CCN(C(=O)Nc3ccccc3Cl)CC2)cc1", "QUANTITATIVE_READOUT": 2.37}
{"MOLECULE": "O=C(CCCN1C(=O)CSc2ncccc21)N1CCN(c2cccc(C(F)(F)F)c2)CC1", "QUANTITATIVE_READOUT": -4.32}
{"MOLECULE": "COCCn1c(SCC(=O)Nc2ccccc2F)nc2c(c1=O)SCC2", "QUANTITATIVE_READOUT": 0.573}
{"MOLECULE": "COCCNC(=O)C1CCN(S(=O)(=O)c2ccc3c(c2)OCCO3)CC1", "QUANTITATIVE_READOUT": -2.22}
{"MOLECULE": "O=C(NC1CCCC1)C(NS(=O)(=O)c1ccc(Br)s1)c1ccccc1 (centres undefined)", "QUANTITATIVE_READOUT": -0.275}
{"MOLECULE": "Cc1ccc(C(=O)Nc2nc3ccc(Cl)cc3s2)o1", "QUANTITATIVE_READOUT": -1.18}
{"MOLECULE": "CNC(=O)NC(=O)C(OC(=O)c1cccc(S(=O)(=O)N2CCCCC2)c1)c1ccccc1 (centres undefined)", "QUANTITATIVE_READOUT": 1.44}
{"MOLECULE": "Cc1nnc(C)c2c(C)n(N)c(C)c12", "QUANTITATIVE_READOUT": 1.96}
{"MOLECULE": "CCS(=O)(=O)c1ccc(-c2cccc(NC(=O)c3ccc(Br)o3)c2)nn1", "QUANTITATIVE_READOUT": 2.73}
{"MOLECULE": "CCOC(=O)C1=C(CC)Nc2ccccc2N=C1NC(=O)c1cccc(S(=O)(=O)N2CCCC2)c1", "QUANTITATIVE_READOUT": 3.96}
{"MOLECULE": "COc1ccc(Cl)cc1NC(=O)C(C)N1CCc2ccccc21 (centres undefined)", "QUANTITATIVE_READOUT": 0.322}
{"MOLECULE": "CSC1=NC2(C)CCCCC2C12C=CC(=O)C=C2 (centres undefined)", "QUANTITATIVE_READOUT": 2.87}
{"MOLECULE": "COCCCNC(=O)CNC(=S)N(Cc1cc(OC)c(OC)c(OC)c1)C1CCCC1", "QUANTITATIVE_READOUT": -1.22}
{"MOLECULE": "O=C(NCc1cccnc1)c1cc(S(=O)(=O)N2CCOCC2)c(Cl)cc1Cl", "QUANTITATIVE_READOUT": -0.415}
{"MOLECULE": "Cc1c(C(=O)NCCN(C)C)oc2ccc(S(=O)(=O)N3CCCC3)cc12", "QUANTITATIVE_READOUT": -4.78}
{"MOLECULE": "Oc1c(Cl)cc(Cl)cc1/C=N/c1ncn[nH]1", "QUANTITATIVE_READOUT": 0.992}
